- SYSTEM: T1, mouse PCSK9 (mouse, UniProt Q80W65 35-694, limits assumed)
- T1 construct: also called mPCSK9; msPCK9
- T1 sequence (Q80W65 35-694 limits assumed): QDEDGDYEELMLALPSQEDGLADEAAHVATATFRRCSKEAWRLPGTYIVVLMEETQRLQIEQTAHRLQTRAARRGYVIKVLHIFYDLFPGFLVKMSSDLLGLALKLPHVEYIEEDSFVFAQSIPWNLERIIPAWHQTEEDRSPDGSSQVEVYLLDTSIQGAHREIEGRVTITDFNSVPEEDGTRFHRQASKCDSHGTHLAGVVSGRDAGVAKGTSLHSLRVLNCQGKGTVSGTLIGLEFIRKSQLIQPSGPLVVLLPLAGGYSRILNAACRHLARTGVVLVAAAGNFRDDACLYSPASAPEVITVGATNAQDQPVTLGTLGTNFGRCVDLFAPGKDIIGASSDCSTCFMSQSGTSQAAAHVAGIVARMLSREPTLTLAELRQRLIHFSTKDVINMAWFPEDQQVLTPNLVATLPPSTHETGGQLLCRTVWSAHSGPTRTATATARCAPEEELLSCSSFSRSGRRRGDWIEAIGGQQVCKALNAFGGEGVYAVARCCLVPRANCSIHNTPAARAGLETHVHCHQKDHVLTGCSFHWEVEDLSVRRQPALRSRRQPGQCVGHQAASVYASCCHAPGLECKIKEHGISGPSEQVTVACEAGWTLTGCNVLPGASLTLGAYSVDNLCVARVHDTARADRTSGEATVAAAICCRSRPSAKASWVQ
- ASSAY NAME: SPR Biacore 3000, captured IgG, mPCSK9 injected, pH 7.4
RECORDED ENDPOINT: pKd
The meaning of pKd here: minus log10 of the concentration in molar units.

stdin: Consider the binder shown here: 5L1724H23_6L3 (antibody, V domains shown, Only CDRs printed; Full-length IgG) VH: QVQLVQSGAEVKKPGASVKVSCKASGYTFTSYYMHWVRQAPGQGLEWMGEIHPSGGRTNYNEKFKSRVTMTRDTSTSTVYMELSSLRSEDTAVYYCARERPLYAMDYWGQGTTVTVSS VL: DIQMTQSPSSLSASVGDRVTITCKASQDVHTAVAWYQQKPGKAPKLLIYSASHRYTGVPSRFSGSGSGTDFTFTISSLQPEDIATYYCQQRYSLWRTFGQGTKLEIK What is its recorded pKd?
stdout: 7.39

stdin: Query (binder): 5L1724H35 (antibody, V domains shown, Triple histidine mutant of h5A10; Only CDRs printed; Full-length IgG) VH: QVQLVQSGAEVKKPGASVKVSCKASGYTFTSYYMHWVRQAPGQGLEWMGEINPSGGRTNYNEKFKSRVTMTRDTSTSTVYMELSSLRSEDTAVYYCARERPLHAMDYWGQGTTVTVSS VL: DIQMTQSPSSLSASVGDRVTITCKASQDVHTAVAWYQQKPGKAPKLLIYSASHRYTGVPSRFSGSGSGTDFTFTISSLQPEDIATYYCQQRYSTPRTFGQGTKLEIK ; field requested: pKd
stdout: 7.46

stdin: So what's the measured pKd for this one? 5L1721H23 (antibody, V domains shown, Triple histidine mutant of h5A10; Only CDRs printed; Full-length IgG) VH: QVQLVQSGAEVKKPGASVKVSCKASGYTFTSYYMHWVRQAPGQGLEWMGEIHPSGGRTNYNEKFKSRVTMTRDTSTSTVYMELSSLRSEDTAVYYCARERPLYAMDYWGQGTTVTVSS VL: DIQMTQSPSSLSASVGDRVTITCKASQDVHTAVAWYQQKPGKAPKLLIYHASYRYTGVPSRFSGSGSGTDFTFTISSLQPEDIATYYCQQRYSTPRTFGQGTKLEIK
stdout: 7.64
